Cited source: PubChem BioAssay (NCI)

- Test system: MDA-MB-468 breast
- protocol.notes: NCI tumour cell line growth inhibition, 48 h
Label rule, in plain words: TGI of 7 µM and up is met, under 7 µM is not met.

Known results for molecules:
# molecule, classification
data = [
    ("COc1cc2oc(-c3cccc(C(=O)Nc4ccc(Cl)cc4)c3)cc(=O)c2c(OC)c1OC", "met"),
    ("Clc1nccc2c(-c3csc(-c4c[nH]c5ccc(Br)cc45)n3)c[nH]c12", "not met"),
]

Task: Reported TGI at or above 7 µM? COc1cc2c(c(OC)c1OC)-c1ccc(NN(C(=O)c3ccccc3)C(=O)c3ccccc3)c(=O)cc1[C@@H](NC(C)=O)CC2 (tested in a mixture with another compound)
Output: not met

Task: Param item: COc1cc(CNCCCCCCN2C(=O)c3cccc4cccc(c34)C2=O)ccc1O
Output: met

Task: Param item: CSC1=NC(=Nc2c(C)cccc2C)C2(CCC(C(C)(C)C)CC2)N1c1ccc(Cl)cc1 (centres undefined)
Output: met

Task: Param item: CC(C)(C)c1cc(C(=O)Nc2ccccc2C(=O)NCCN)cc(C(C)(C)C)c1
Output: not met

---

- System: MDA-MB-468 breast
- protocol.notes: NCI tumour cell line growth inhibition, 48 h; in the data active means GI50 below about 0.43 µM; inactive means the rest
Answer with one of the outcomes given here: active, inactive

Known results for compounds:
# compound, classification
measured = [
    ("CN(C)c1ccc(/C=C\\c2ccnc3ccccc23)cc1", "active"),
    ("COc1cc(/C=C2\\C(=O)N(Cc3ccc(Cl)cc3)c3ccccc32)cc(OC)c1OC", "inactive"),
    ("COc1ccc(C(=O)/C=C/c2ccccc2Br)cc1S(N)(=O)=O", "inactive"),
    ("CCOC(=O)[C@@H](C)C[C@H](Cc1ccccc1)NC(=O)c1csc([C@@H](C[C@H](C(C)C)N(C)C(=O)[C@@H](NC(=O)[C@H]2CCCCN2C)C(C)(C)CC)OC(C)=O)n1", "active"),
    ("O=C(Nc1ccc(Oc2ccc3nc(NC(=O)c4ccco4)[nH]c3c2)cc1)Nc1cc(C(F)(F)F)ccc1F", "inactive"),
]

Task: Could you please tell me the result logged for Clc1nccc2c(-c3csc(-c4c[nH]c5ccc(Br)cc45)n3)c[nH]c12 in this assay?
Output: inactive

Task: Param item: NS(=O)(=O)c1ccc(Nc2cc(-c3ccc(O)c(F)c3)[nH]n2)cc1
Output: inactive

Task: Param item: O=C1CC(c2c[nH]c3ccc(F)cc23)C(=O)N1 (stereo not drawn)
Output: inactive

Task: Param item: COC1(CC[C@@H](C)COC2OC(CO)C(O)C(O)C2O)O[C@H]2C[C@H]3[C@@H]4CC=C5C[C@@H](OC6OC(CO)C(OC7OC(C)C(O)C(O)C7O)C(O)C6OC6OC(C)C(O)C(O)C6O)CC[C@]5(C)[C@H]4CC[C@]3(C)[C@H]2[C@@H]1C (stereo partly drawn)
Output: inactive

Task: Param item: COc1cnc2c(c1)C(=O)c1c-2n(CCCNC2=NCCS2)c(=O)c2cc(F)ccc12
Output: active

Task: Param item: COc1cc(CNCCCCCCN2C(=O)c3cccc4cccc(c34)C2=O)ccc1O
Output: inactive

Task: Param item: CC(=O)Nc1ccc(C(=O)CCl)cc1
Output: inactive

Task: Param item: CCN1CCN(c2nc(C)cc(N(CCCNc3ccnc4cc(Cl)ccc34)Cc3ccc4c(c3)OCO4)n2)CC1
Output: inactive
